# testedSystem: human mGluR5a receptor (Homo sapiens)
# assayExplanation: Cell-based functional Ca2+ mobilization assay (FDSS), potentiation of glutamate EC20 response in H10H cell line
# appliedConditions: HEK cells transfected with human mGluR5 (H10H), presence of glutamate EC20; concentration in mol/L
Recorded pEC50 by entry

Below are worked cases with known answers.
>  <compound>
N#Cc1cc(F)cc(C(=O)N2CCn3nc(COc4cccc(F)c4)cc3C2)c1

>  <pEC50>
6.77

$$$$
>  <compound>
O=C(c1ncccc1Cl)N1CCn2nc(COc3ccccc3)cc2C1

>  <pEC50>
<5.00

$$$$
>  <compound>
CC1CN(C(=O)c2cccc(C#N)c2)Cc2cc(COc3ccccc3)nn21 (stereo not shown)

>  <pEC50>
6.25

$$$$
>  <compound>
CC1Cn2nc(COc3ccccc3)cc2CN1C(=O)c1cccc(C#N)c1 (stereo not shown) [Compound 49]

>  <pEC50>
5.56

$$$$

Q: State recorded pEC50 with human mGluR5a receptor (Homo sapiens), entry O=C(c1ccc(F)cc1)N1CCn2nc(COc3ccccc3)cc2C1 , no comment.
A: 6.79

* * *

# testedSystem: human mGluR5a receptor (Homo sapiens, UniProt P41594)
# Sequence (P41594 21-1180 isoform P41594-2 limits assumed): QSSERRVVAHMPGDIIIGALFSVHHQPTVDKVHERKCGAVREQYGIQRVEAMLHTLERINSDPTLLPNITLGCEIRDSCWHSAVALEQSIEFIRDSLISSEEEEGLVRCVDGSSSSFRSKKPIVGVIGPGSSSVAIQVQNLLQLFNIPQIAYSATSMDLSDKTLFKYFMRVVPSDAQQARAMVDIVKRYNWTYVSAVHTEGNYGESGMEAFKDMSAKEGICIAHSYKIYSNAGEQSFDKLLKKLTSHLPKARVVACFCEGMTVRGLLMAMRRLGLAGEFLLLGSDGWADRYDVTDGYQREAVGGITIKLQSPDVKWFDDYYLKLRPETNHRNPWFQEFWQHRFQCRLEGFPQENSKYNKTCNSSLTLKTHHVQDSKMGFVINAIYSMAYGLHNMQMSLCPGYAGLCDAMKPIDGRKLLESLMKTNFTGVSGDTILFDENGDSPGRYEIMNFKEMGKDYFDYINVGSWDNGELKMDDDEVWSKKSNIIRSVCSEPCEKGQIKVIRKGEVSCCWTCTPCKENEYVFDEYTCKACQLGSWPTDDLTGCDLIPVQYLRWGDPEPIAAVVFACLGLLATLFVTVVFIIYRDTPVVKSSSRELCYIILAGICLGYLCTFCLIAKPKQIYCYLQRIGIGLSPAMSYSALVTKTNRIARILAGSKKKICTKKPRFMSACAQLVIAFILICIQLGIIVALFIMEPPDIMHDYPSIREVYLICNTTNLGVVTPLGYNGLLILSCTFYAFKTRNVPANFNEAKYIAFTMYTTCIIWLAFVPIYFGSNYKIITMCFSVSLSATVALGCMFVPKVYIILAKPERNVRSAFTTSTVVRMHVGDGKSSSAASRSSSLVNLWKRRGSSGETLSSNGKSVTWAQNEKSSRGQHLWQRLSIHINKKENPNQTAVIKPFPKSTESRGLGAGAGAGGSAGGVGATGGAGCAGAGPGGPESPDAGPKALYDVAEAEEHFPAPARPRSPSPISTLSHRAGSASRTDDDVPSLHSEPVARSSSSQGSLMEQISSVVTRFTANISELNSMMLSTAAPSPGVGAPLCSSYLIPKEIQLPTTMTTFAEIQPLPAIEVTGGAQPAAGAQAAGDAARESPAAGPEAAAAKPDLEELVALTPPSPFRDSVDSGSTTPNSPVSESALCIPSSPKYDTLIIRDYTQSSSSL
# assayExplanation: Cell-based functional Ca2+ mobilization assay (FDSS), potentiation of glutamate EC20 response in H10H cell line
# appliedConditions: HEK cells transfected with human mGluR5 (H10H), presence of glutamate EC20; read-out: EC50
reportedMetric: pEC50
Reminder that pEC50 is minus the log10 of a molar concentration.

>  <compound>
O=C(c1ccc(F)cc1)N1CCn2nc(COc3ccccc3)cc2C1C(F)(F)F (racemic)

>  <pEC50>
5.58

$$$$
>  <compound>
O=C(c1cncc(F)c1)N1CCn2nc(COc3cccc(F)c3)cc2C1

>  <pEC50>
5.86

$$$$
>  <compound>
O=C(c1c(F)cccc1F)N1CCn2nc(COc3ccccc3)cc2C1

>  <pEC50>
6.53

$$$$

Q: State recorded pEC50 with human mGluR5a receptor (Homo sapiens, UniProt P41594), entry N#Cc1ccc(C(=O)N2CCn3nc(COc4cccc(F)c4)cc3C2)cc1F , no comment.
A: 5.75

Q: State recorded pEC50 with human mGluR5a receptor (Homo sapiens, UniProt P41594), entry CC1(C)CN(C(=O)c2ccc(F)cc2)Cc2cc(COc3ccccc3)nn21 , no comment.
A: 6.59

Q: State recorded pEC50 with human mGluR5a receptor (Homo sapiens, UniProt P41594), entry N#Cc1cccc(C(=O)N2CCn3nc(COc4ccccc4)cc3C2)c1 , no comment.
A: 6.34

Q: State recorded pEC50 with human mGluR5a receptor (Homo sapiens, UniProt P41594), entry O=C(c1ccccc1)N1CCn2nc(COc3cccc(F)c3)cc2C1 , no comment.
A: 6.59

* * *

# testedSystem: human mGluR5a receptor (Homo sapiens, UniProt P41594)
# assayExplanation: Cell-based functional Ca2+ mobilization assay (FDSS), potentiation of glutamate EC20 response in H10H cell line
# appliedConditions: HEK cells transfected with human mGluR5 (H10H), presence of glutamate EC20; read-out: EC50
reportedMetric: pEC50
Reminder that pEC50 is minus the log10 of a molar concentration.

Below are worked cases with known answers.
>  <molecule>
COc1c(COc2ccccc2)nn2c1CN(C(=O)c1ccc(F)cc1)CC2

>  <testedSystem>
human mGluR5a receptor (Homo sapiens, UniProt P41594)

>  <pEC50>
5.74

$$$$
>  <molecule>
O=C(c1ccc(F)c(F)c1)N1CCn2nc(COc3cccc(F)c3)cc2C1

>  <testedSystem>
human mGluR5a receptor (Homo sapiens, UniProt P41594)

>  <pEC50>
6.23

$$$$
>  <molecule>
O=C(c1ccccc1F)N1CCn2nc(COc3ccccc3)cc2C1

>  <testedSystem>
human mGluR5a receptor (Homo sapiens, UniProt P41594)

>  <pEC50>
6.70

$$$$

Q: Tell me pEC50 reported for CC1Cn2nc(COc3ccccc3)cc2CN1C(=O)c1cccc(C#N)c1 (stereo not drawn) [Compound 50]
A: 6.36

Q: Tell me pEC50 reported for CC1Cn2nc(COc3ccccc3)cc2CN1C(=O)c1cccc(C#N)c1 (stereo not drawn) [Compound 49]
A: 5.56

Q: Tell me pEC50 reported for CC1Cn2nc(COc3ccccc3)cc2CN1C(=O)c1ccc(F)cc1 (racemic) [Compound 17]
A: 6.17

Q: Tell me pEC50 reported for O=C(c1ccc(F)cc1)N1CCn2nc(COc3ccccc3)cc2C1
A: 6.79

Q: Tell me pEC50 reported for Nc1c(COc2ccccc2)nn2c1CN(C(=O)c1ccc(F)cc1)CC2
A: 5.34

* * *

Recorded EC50 by entry
# testedSystem: human mGluR5a receptor (Homo sapiens, UniProt P41594)
# assayExplanation: Cell-based functional Ca2+ mobilization assay (FDSS), potentiation of glutamate EC20 response in H10H cell line
# appliedConditions: HEK cells transfected with human mGluR5 (H10H), presence of glutamate EC20; read-out: EC50
Report the value in nM with no unit label.

>  <compound>
O=C(c1ccc(F)cc1F)N1CCn2nc(COc3ccccc3)cc2C1

>  <reportedMetric>
EC50

>  <result>
208

$$$$
>  <compound>
O=C(c1cccc(F)c1F)N1CCn2nc(COc3ccccc3)cc2C1

>  <reportedMetric>
EC50

>  <result>
406

$$$$
>  <compound>
O=C(c1ncccc1F)N1CCn2nc(COc3cccc(F)c3)cc2C1

>  <reportedMetric>
EC50

>  <result>
2950

$$$$

Q: State recorded EC50 with human mGluR5a receptor (Homo sapiens, UniProt P41594), entry CC1CN(C(=O)c2ccc(F)cc2)Cc2cc(COc3ccccc3)nn21 (racemic) [Compound 16] , no comment.
A: 172

* * *

# testedSystem: human mGluR5a receptor (Homo sapiens)
# assayExplanation: Cell-based functional Ca2+ mobilization assay (FDSS), potentiation of glutamate EC20 response in H10H cell line
# appliedConditions: HEK cells transfected with human mGluR5 (H10H), presence of glutamate EC20; concentration in mol/L
Recorded pEC50 by entry
Give the figure only, with no unit attached.

Below are worked cases with known answers.
>  <molecule>
O=C(c1ccc(F)cc1)N1CCn2nc(COc3ccc(F)cc3)cc2C1 [Compound 38]

>  <result>
6.53

$$$$
>  <molecule>
Nc1c(COc2ccccc2)nn2c1CN(C(=O)c1ccc(F)cc1)CC2 [Compound 58]

>  <result>
5.34

$$$$
>  <molecule>
O=C(c1ccccc1)N1CCn2nc(COc3cccc(F)c3)cc2C1 [Compound 9]

>  <result>
6.59

$$$$
>  <molecule>
COc1c(COc2ccccc2)nn2c1CN(C(=O)c1ccc(F)cc1)CC2 [Compound 59]

>  <result>
5.74

$$$$
>  <molecule>
O=C(c1ncccc1F)N1CCn2nc(COc3cccc(F)c3)cc2C1 [Compound 20]

>  <result>
5.53

$$$$

Q: Tell me pEC50 reported for Cc1cccc(C(=O)N2CCn3nc(COc4cccc(F)c4)cc3C2)n1 [Compound 24]
A: 5.51

Q: Tell me pEC50 reported for Cc1c(COc2ccccc2)nn2c1CN(C(=O)c1ccc(F)cc1)CC2 [Compound 57]
A: 5.52

Q: Tell me pEC50 reported for N#Cc1cccc(C(=O)N2CCn3nc(COc4cccc(F)c4)cc3C2)c1 [Compound 30]
A: 6.48

* * *

Kindly return criterion met if reported melting point is no lower than 100 °C; return criterion not met if it is lower.

>  <molecule>
O=C(c1ccc(F)cc1)N1CCn2nc(COc3cccc(F)c3)cc2C1 [Compound 12]

>  <discreteLabel>
criterion met

$$$$

Q: Is the recorded value of melting point equal to or greater than 100 °C for this molecule? N#Cc1cc(C(=O)N2CCn3nc(COc4cccc(F)c4)cc3C2)ccc1F [Compound 33]
A: criterion not met

Q: Is the recorded value of melting point equal to or greater than 100 °C for this molecule? O=C(c1ccc(F)cc1F)N1CCn2nc(COc3cccc(F)c3)cc2C1 [Compound 11]
A: criterion not met

Q: Is the recorded value of melting point equal to or greater than 100 °C for this molecule? CC1Cn2nc(COc3ccccc3)cc2CN1C(=O)c1ccc(F)cc1 (stereo not drawn) [Compound 45]
A: criterion not met

Q: Is the recorded value of melting point equal to or greater than 100 °C for this molecule? O=C(c1ccc(F)c(F)c1)N1CCn2nc(COc3cccc(F)c3)cc2C1 [Compound 13]
A: criterion met

* * *

# testedSystem: UniProt P41594
# assayExplanation: Cell-based functional Ca2+ mobilization assay (FDSS), potentiation of glutamate EC20 response in H10H cell line
# appliedConditions: maximum average response at a single concentration, percent of maximal glutamate response; human mGluR5 HEK cells
# Procedure: Human embryonic kidney (HEK) cells transfected with rat mGluR5 were plated in clear bottom assay plates for assay in a Functional Drug Screening System (FDSS). […] After establishment of a fluorescence baseline for twelve seconds, the compounds of the present invention were added to the cells, and the response in cells was measured. […] Five minutes later, an mGluR5 agonist (e.g., glutamate, 3,5-dihydroxyphenylglycine, or quisqualate) was added to the cells, and the response of the cells was measured. […]
Kindly return T if reported Emax is no lower than 70%; return F if it is lower.

Known results for compounds:
>  <compound>
CC1Cn2nc(COc3ccccc3)cc2CN1C(=O)c1ccc(F)cc1 (stereo not drawn) [Compound 45]

>  <discreteLabel>
T

$$$$
>  <compound>
CC1Cn2nc(COc3ccccc3)cc2CN1C(=O)c1cccc(C#N)c1 (stereo not drawn) [Compound 50]

>  <discreteLabel>
F

$$$$
>  <compound>
CC1CN(C(=O)c2ccc(F)cc2)Cc2cc(COc3ccccc3)nn21 (stereo not drawn) [Compound 41]

>  <discreteLabel>
T

$$$$
>  <compound>
CC1Cn2nc(COc3ccccc3)cc2CN1C(=O)c1ccc(F)cc1 (stereo not drawn) [Compound 46]

>  <discreteLabel>
F

$$$$

Now look at this entry.
Q: Is the recorded value of Emax equal to or greater than 70% for this compound? CC1Cn2nc(COc3ccccc3)cc2CN1C(=O)c1cccc(F)c1 (stereo not drawn) [Compound 48]
A: F
